# METHOD: HepG2 liver cancer cell viability effects, profiling panel, resazurin fluorescence, 24 h, PK04 Diversity Set (AID 1172); further: test concentration not given here
# APPLIED CONDITIONS: higher = more signal
Item-by-item account of z-score
Provide a numeric answer; units are not to be included.

Reference set (5 entries):
MOLECULE	z-score
CC(C)C(=C=CC[C@H](O)c1cccc(OCCO)c1)C[C@H](O)c1ccccn1	1.91
COC(=O)C[C@H]1O[C@]2(C(=O)N(C)c3ccccc32)[C@@H](C)[C@@H]1[Si](C)(C)c1ccccc1	1.45
C=C(COC)/C(=C/C[C@@H](OC(C)=O)c1cccc(OCCO)c1)c1cnc2ccccc2c1	-0.469
COc1ccc([Si](C)(C)[C@H]2[C@H](CC(=O)N3CCC[C@H]3CO)O[C@@]3(C(=O)N(C)c4c(Br)cc(C)cc43)[C@@H]2C)cc1	0.728
CC1CC/C=C\[C@H]2OC34C=CCN(CCN5CCOCC5)C(=O)[C@H]3N(C(CO)C(C)C)C(=O)[C@@H]4C2C(=O)O1 (some centres not stated)	-0.137

z-score for `CCCCC(=C=CC[C@@H](O)c1ccccc1OCCO)C[C@@H](O)c1ccccn1` is 0.687

Given item `CC[C@@H](O[Si](C#C[Si](C(C)C)(C(C)C)C(C)C)(C(C)C)C(C)C)c1cn([C@H](CO)Cc2ccccc2)nn1` , the value recorded as its z-score is 1.03

====

# METHOD: small-molecule binders of probe aNOTCH2, primary screen, biochemical, small-molecule microarray, 635/667 nm fluorescence (AID 1121);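 further: score merges feature fluorescence read at 667 nm with its signal to noise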
# APPLIED CONDITIONS: higher = more signal
QUANTITY KIND: composite z-score

The following compounds have reported results that may help.
COMPOUND	OBSERVED MEASUREMENT
CN(C)CCCCCCNC(=O)[C@@H]1C[C@@H]2C(=O)N[C@@H](CCCC[N+](C)(C)C)C(=O)N2[C@@H]1c1cccc(OCCO)c1	-0.0495
C[N+](C)(C)CCCC[C@@H]1NC(=O)[C@H]2C[C@@H](C(=O)NCCCCCN)[C@@H](c3ccc(O)cc3)N2C1=O	-0.053
COc1cc2c(cc1O)C(C)N(Cc1sc3ccccc3c1Cl)CC2 (stereo not given)	-0.0158
C=C[C@H](C)[C@@H](OC(=O)Nc1ccc(SC)cc1)c1ccc(OCCO)cc1	-0.0008

Now for another entry.
The compound listed as CC(C)N1CC=CC23O[C@@H]4/C=C\CCCOC(=O)C4[C@H]2C(=O)N(C(C)CO)[C@@H]3C1=O (stereo not given in full) shows composite z-score equal to -0.177

====

# METHOD: basal RPMI8226 mitochondrial membrane potential changes, profiling panel, cell-based, JC-1 fluorescence, 24 h, 100 nL compound (AID 1169); further: test concentration not given here
# APPLIED CONDITIONS: RPMI8226 myeloma, JC-1 mitochondrial potential fluorescence, higher = more signal
# Lookup of reported z-score keyed by entry
Respond with the number and no other words.

Known z-score results, listed for orientation:
COMPOUND	OBSERVED MEASUREMENT
CCCCCCCCCCC(O)C1C=CC2C(=O)N(C)C(=O)C2N1Nc1ccccc1 (stereo unspecified)	-0.744
COCCCNC(=O)[C@@]1(Cc2ccccc2I)c2ccccc2C(=O)N(Cc2ccccc2OC)[C@H]1c1ccc(CO)cc1	-0.533
COC(=O)[C@@]1(Cc2ccc(F)cc2)[C@H]2c3cc(C(=O)N4CCCC4)n(Cc4ccc(C(F)(F)F)nc4)c3C[C@H]2CN1C(=O)c1ccccc1	-0.799
OCCCc1cc[n+](Cc2cc3c(cc2Br)OCO3)cc1	-0.437
[N-]=[N+]=NCc1ccccc1C[C@]1(C(=O)N2CCCCC2)COC(c2ccc(OCCCO)cc2)=N1	-1.22

Kindly consider the entry below.
For this compound ( `O=C/C=C/c1ccc(-c2ccccc2)cc1` ), measured z-score is -0.853
